Provide the recorded remaining at 10 min for the entries that follow.
protocol details: Metabolic stability in human liver microsomes assessed as parent compound remaining after 10 mins
Type: ADME, microsome
assay setup: read-out: Stability
Record the value in %, omitting the unit from your answer.

Qu. Query remaining at 10 min for CNC(=O)c1c(-c2ccc(F)cc2)oc2ccc(-c3cc(C(=O)NC4(c5ccccc5)CC4)ccc3C)cc12
Ans. 68

Qu. Query remaining at 10 min for CNC(=O)c1c(-c2ccc(F)cc2)oc2ccc(-c3cc(C(=O)NC4(c5ccncc5)CC4)ccc3C)cc12
Ans. 11

Qu. Query remaining at 10 min for CNC(=O)c1c(-c2ccc(F)cc2)oc2ccc(-c3cc(C(=O)NC4(c5ccccn5)CC4)ccc3C)cc12
Ans. 89

Qu. Query remaining at 10 min for CNC(=O)c1c(-c2ccc(F)cc2)oc2ccc(-c3cc(C(=O)NC4(c5cccnc5)CC4)ccc3C)cc12
Ans. 0.7

---

protocol details: Protein binding in human serum
Assay type: ADME, cell-free
assay setup: read-out: PB (converted)
outcome measure: fraction unbound
Give the figure only, with no unit attached.

Qu. Query fraction unbound for CNC(=O)c1c(-c2ccc(F)cc2)oc2ccc(-c3cc(C(=O)NC4(c5ncccn5)CC4)ccc3C)c(F)c12 [BMS-929075]
Ans. 0.018

---

protocol details: Drug uptake in Sprague-Dawley rat liver at 6 mg/kg, po administered via gavage after 24 hrs by LC/MS/MS analysis
Type: ADME, organism-based
assay setup: read-out: Drug uptake
outcome measure: concentration at 24 h (nM)
Record the value in nM, omitting the unit from your answer.

Qu. Query concentration at 24 h for CNC(=O)c1c(-c2ccc(F)cc2)oc2ccc(-c3cc(C(=O)NC4(c5ncccn5)CC4)ccc3C)cc12
Ans. 614

Qu. Query concentration at 24 h for CNC(=O)c1c(-c2ccc(F)cc2)oc2ccc(-c3cc(C(=O)NC4(c5ncccn5)CC4)ccc3C)c(F)c12
Ans. 1120

---

protocol details: Lipophilicity, log D of the compound by shake flask method
Format: physicochemical
assay setup: octanol/water
outcome measure: logD

Qu. Query logD for CNC(=O)c1c(-c2ccc(F)cc2)oc2ccc(-c3cc(C(=O)NC4(c5ncccn5)CC4)ccc3C)c(F)c12
Ans. 5.09

---

protocol details: Protein binding in monkey serum
Type: ADME, cell-free, Macaca mulatta
assay setup: rhesus monkey, read-out: PB (converted)
outcome measure: fraction unbound
Give the figure only, with no unit attached.

Qu. Query fraction unbound for CNC(=O)c1c(-c2ccc(F)cc2)oc2ccc(-c3cc(C(=O)NC4(c5ncccn5)CC4)ccc3C)c(F)c12
Ans. 0.028

---

Tested on: Hepatitis C virus
protocol details: Antiviral activity against HCV genotype 1a infected in human HuH7 cells after 3 days by luciferase reporter assay
Assay type: functional, cell-based, Hepacivirus hominis, subtype 1a
assay setup: Hepatitis C virus, subtype 1a, Huh-7, 72 h; read-out: EC50
outcome measure: EC50 (nM)
Record the value in nM, omitting the unit from your answer.

Qu. Query EC50 for CNC(=O)c1c(-c2ccc(F)cc2)oc2ccc(-c3cccc(C(=O)NC(C)C)c3)cc12
Ans. 630

Qu. Query EC50 for CNC(=O)c1c(-c2ccc(F)cc2)oc2ccc(-c3cccc(C(=O)NCc4ccccc4)c3)cc12
Ans. 1800

Qu. Query EC50 for CNC(=O)c1c(-c2ccc(F)cc2)oc2ccc(-c3cccc(C(=O)NC(C)(C)c4ccccc4)c3)cc12
Ans. 160
